Biological target: Fatty-acid amide hydrolase 1 (Homo sapiens, UniProt O00519)
Sequence (O00519 whole entry): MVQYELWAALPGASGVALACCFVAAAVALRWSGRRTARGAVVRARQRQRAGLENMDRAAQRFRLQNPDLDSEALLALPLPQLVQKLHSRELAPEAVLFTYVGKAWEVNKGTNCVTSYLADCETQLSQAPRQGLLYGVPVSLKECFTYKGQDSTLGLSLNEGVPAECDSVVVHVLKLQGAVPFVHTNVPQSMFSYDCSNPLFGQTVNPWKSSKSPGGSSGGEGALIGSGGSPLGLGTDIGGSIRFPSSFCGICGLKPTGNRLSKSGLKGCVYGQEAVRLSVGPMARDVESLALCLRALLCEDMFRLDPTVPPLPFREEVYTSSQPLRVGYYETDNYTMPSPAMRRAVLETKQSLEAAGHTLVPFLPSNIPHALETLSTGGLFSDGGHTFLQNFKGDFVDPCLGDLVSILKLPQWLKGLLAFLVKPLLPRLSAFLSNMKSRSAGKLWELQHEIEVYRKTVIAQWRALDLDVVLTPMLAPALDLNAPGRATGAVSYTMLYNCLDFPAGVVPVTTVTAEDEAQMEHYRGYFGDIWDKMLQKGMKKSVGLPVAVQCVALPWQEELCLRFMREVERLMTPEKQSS
Test: Inhibition of Fatty-acid amide hydrolase (FAAH) activity in human lymphoma U937 cell using [3H]AEA as substrate in the 0-25 uM conc
MEASURE: Ki (nM)
Numbers only; they are read as nM.

[in] Fill blank: measured Ki of the compound CCCCC/C=C\C=C\[C@@H](O)C/C=C\C/C=C\CCCC(=O)NCCO is ____.
[out] 570

[in] What value of measured Ki is listed for CCCCC/C=C\C=C\C(O)C/C=C\C/C=C\CCCC(=O)NCCO (mixture of isomers) ?
[out] 690

[in] Entry CCCCCC(O)/C=C/C=C\C/C=C\C/C=C\CCCC(=O)NCCO (mixture of isomers) has what Ki?
[out] 630

Then this compound:
[in] GET /values?readout=Ki&item= CCCCC[C@H](O)/C=C/C=C\C/C=C\C/C=C\CCCC(=O)OC[C@H](O)CO
[out] 5000

* * *

biological target: Cannabinoid receptor 2 (Rattus norvegicus, UniProt Q9QZN9); assay: Displacement of [3H]CP-55940 from rat forebrain membrane which expresses Cannabinoid receptor 2 in the presence of PMSF
Sequence (Q9QZN9 whole entry): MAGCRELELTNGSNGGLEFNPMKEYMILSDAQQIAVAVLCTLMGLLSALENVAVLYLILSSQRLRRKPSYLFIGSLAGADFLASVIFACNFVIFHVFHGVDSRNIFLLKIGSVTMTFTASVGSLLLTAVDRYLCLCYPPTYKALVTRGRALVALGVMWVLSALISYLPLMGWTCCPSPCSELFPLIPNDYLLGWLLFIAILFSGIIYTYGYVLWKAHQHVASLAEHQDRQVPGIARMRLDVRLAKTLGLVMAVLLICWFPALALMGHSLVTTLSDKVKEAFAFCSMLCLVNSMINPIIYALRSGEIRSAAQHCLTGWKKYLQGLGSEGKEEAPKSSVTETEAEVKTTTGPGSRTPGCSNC
In this section, each of the compounds is paired with its reported Ki.

Some entries whose results are on file:
[in] Dear colleague, I am looking for the recorded Ki of the following compound: CCCCC/C=C\C=C\C(O)C/C=C\C/C=C\CCCC(=O)NCCO (mixture of isomers)
[out] > 1 µM

[in] Data request, read-out Ki, for CCCCC[C@@H](O)/C=C/C=C\C/C=C\C=C\[C@H](O)CCCC(=O)NCCO
[out] > 1 µM

[in] Looking for the measured Ki of CCCCC[C@@H](O)/C=C/C=C\C/C=C\C/C=C\CCCC(=O)NCCO , can you help?
[out] > 1 µM

[in] I have this compound here, CCCCC[C@H](O)/C=C/C=C\C/C=C\C/C=C\CCCC(=O)OC[C@@H](O)CO , and I need its recorded Ki.
[out] 0.55 µM

[in] Record request: Ki value, item CCCCC/C=C\C[C@@H](O)/C=C/C=C\C/C=C\CCCC(=O)NCCO
[out] 0.5 µM

[in] Would you kindly share the measured Ki for CCCCC/C=C\C/C=C\C/C=C\C/C=C\CCCC(=O)OC(CO)CO ?
[out] 0.1 µM

[in] Item CCCCC/C=C\C/C=C\C/C=C\C/C=C\CCCC(=O)OC[C@H](O)CO has what recorded Ki?
[out] > 1 µM

[in] Requested read-out: Ki. Entry: CCCCC[C@H](O)/C=C/C=C\C/C=C\C/C=C\CCCC(=O)OC[C@H](O)CO
[out] > 1 µM

[in] Requested field: Ki. Item: CCCCC/C=C\C/C=C\C/C=C\C/C=C\CCCC(=O)OC[C@@H](O)CO
[out] > 1 µM

[in] Give its Ki value. Item: CCCCCC(O)/C=C/C=C\C/C=C\C/C=C\CCCC(=O)NCCO (mixture of isomers)
[out] > 1 µM

---
[in] Any idea what its Ki is? The compound is CCCCC[C@H](O)/C=C/C=C\CCCCCCCC(=O)NCCO
[out] 0.6 µM

[in] So what does the record say about Ki for CCCCC[C@H](O)/C=C/C=C\C=C\[C@@H](O)C/C=C\CCCC(=O)NCCO ?
[out] > 1 µM

[in] Quick one: Ki of CCCCC/C=C\C=C\[C@@H](O)C/C=C\C/C=C\CCCC(=O)NCCO ?
[out] > 1 µM

* * *

target: Fatty-acid amide hydrolase 1 (Homo sapiens, UniProt O00519); test: Inhibition of Fatty-acid amide hydrolase (FAAH) activity in human lymphoma U937 cell using [3H]AEA as substrate in the 0-25 uM conc
MEASURE: Ki

Consider the following illustrative entries.
[in] # query: Ki of entry CCCCC[C@H](O)/C=C/C=C\C=C\[C@@H](O)C/C=C\CCCC(=O)NCCO
[out] 690 nM

[in] For the compound shown here, CCCCC/C=C\C/C=C\C/C=C\C/C=C\CCCC(=O)NCCO [ANANDAMIDE] , give the reported Ki.
[out] > 10000 nM

[in] Using the record for CCCCC[C@H](O)/C=C/C=C\C/C=C\C/C=C\CCCC(=O)OC[C@@H](O)CO , report its Ki.
[out] 6000 nM

[in] Item under review: CCCCC[C@@H](O)/C=C/C=C\C/C=C\C/C=C\CCCC(=O)NCCO . Reported Ki?
[out] 630 nM

[in] Param item = CCCCC/C=C\C/C=C\C/C=C\C/C=C\CCCC(=O)OC(CO)CO ; retrieve measured Ki.
[out] 5000 nM

More entries:
[in] Could you share which Ki value was measured for CCCCC/C=C\C/C=C\C/C=C\C/C=C\CCCC(=O)OC[C@@H](O)CO ?
[out] 3000 nM

[in] What does the data say about its Ki? Entry: CCCCC[C@@H](O)/C=C/C=C\C/C=C\C=C\[C@H](O)CCCC(=O)NCCO
[out] 1260 nM

[in] Requested read-out: Ki. Entry: CCCCC[C@H](O)/C=C/C=C\CCCCCCCC(=O)NCCO
[out] 430 nM

[in] If you can, please state the reported Ki value of CCCCC/C=C\C/C=C\C/C=C\C/C=C\CCCC(=O)OC[C@H](O)CO .
[out] 2500 nM

[in] Requested read-out: Ki. Entry: CCCCC/C=C\C[C@@H](O)/C=C/C=C\C/C=C\CCCC(=O)NCCO
[out] 2900 nM
